Tested on: NCI-H522 lung
assay explanation: NCI tumour cell line growth inhibition, 48 h
Examples of molecules with documented TGI follow.

molecule	observed measurement
CC(=O)[O-].[Mn+3].[O-]c1ccccc1C=NCCN=Cc1ccccc1[O-]	> 100 µM
COc1ccc(/C=C2\CC(C)CC3C2=NN(C(C)=O)C3c2ccc(OC)cc2)cc1 (stereo not drawn)	83.9 µM
C[C@]12Cc3cnn(-c4ccc(F)cc4)c3NC1CC[C@@H]1C2CC[C@@]2(C)C1CC[C@@H]2O (stereo partly drawn)	25.4 µM
Brc1c(C#CCC(c2ccccc2)(c2ccccc2)c2ccccc2)ccc(C#CCC(c2ccccc2)(c2ccccc2)c2ccccc2)c1Br	> 100 µM
O=C(O)CNc1ccc(C(=O)O)cc1	> 100 µM

Q) // query TGI value for entry COC(=O)c1cccc(N[C@@H]2c3cc4c(cc3C(c3cc(OC)c(O)c(OC)c3)[C@H]3C(=O)OCC32)OCO4)c1 (stereo partly drawn)
A) 8.75 µM

Q) Cool, now `CC(C)(C)OC(=O)N(O)CCCn1cnc2c(N)ncnc21`
A) > 100 µM

Q) Then O=C1O[C@H]2[C@H](O)[C@@H](OC(=O)c3cc(O)c(O)c4c3[C@@H]3C1=CC(=O)C(O)(O)C3(O)O4)[C@H](OC(=O)c1cc(O)c(O)c(O)c1)O[C@@H]2CO (stereo partly drawn) ?
A) > 100 µM

---

Test system: SR leukemia
assay explanation: NCI tumour cell line growth inhibition, 48 h
value type: TGI

compound	tested on	observed measurement
CC1(C)CC23CC(C)(C)c4cccc(c42)OCc2ccc4ccc5ccc(nc5c4n2)COc2cccc1c23	SR leukemia	> 50 µM

Q) // TGI lookup, key: `Cc1cc(-c2nc3ccccc3s2)ccc1N`
A) > 89.8 µM

Q) Next compound: CCCCCCCCCCCCCCCC[N+](C)(CCO)Cc1cnc[nH]1 (stereo not drawn)
A) > 100 µM

---

Tested on: EKVX NSCLC
assay explanation: NCI tumour cell line growth inhibition, 48 h; in the data active means GI50 below about 0.43 µM; inactive means the rest
I would appreciate it if you answered using one of these outcomes: active, inactive

molecule	assigned category
O=C(/C=C/C=C/c1c(C2CC2)nc2ccccc2c1-c1ccc(F)cc1)c1cccs1	inactive
COc1ccc(C[C@@H]2NC[C@@H](O)[C@@H]2OC(C)=O)cc1	inactive

Q) Hi, do you know how OC(COc1ccc(F)cc1)Cn1cnc2c(Cl)ncnc21 (stereo not drawn) came out in this test?
A) inactive

Q) Further, for `O=C(O)CCC/C=C\C[C@H]1C=CC(=O)/C1=C/C[C@@H](O)CCc1cccc(C(F)(F)F)c1` ?
A) inactive

Q) For `COC(=O)c1c(O)c([N+](=O)[O-])cc2c1c1c(n2Cc2ccccc2)C(=O)c2ccccc2C1=O` then?
A) inactive

---

Test system: SR leukemia
assay explanation: NCI tumour cell line growth inhibition, 48 h
value type: TGI

compound	tested on	value type	observed measurement
O=[N+]([O-])/C=C/c1cc2ccccc2[nH]1	SR leukemia	TGI	26.8 µM
c1ccc(P(CCP(c2ccccn2)c2ccccn2)c2ccccc2)cc1	SR leukemia	TGI	> 100 µM
Cc1nn(C(=O)c2ccncc2)c2c1C(c1ccccc1)SC(N)=N2 (configuration not stated)	SR leukemia	TGI	> 10 µM
CCn1cc(-c2ccnc3[nH]ccc23)c(-c2cccc(NC(=O)Nc3ccc(OCc4ccccc4)cc3)c2)n1	SR leukemia	TGI	> 25 µM
COc1cc(/C=C2/SC(c3ccccc3)N(c3ccccc3)C2=O)cc(OC)c1OC (configuration not stated)	SR leukemia	TGI	> 100 µM

Here is another compound to look at.
Q) Give the measured TGI of `Fc1ccc(-c2ncn(C3CCNCC3)c2-c2ccnc(Oc3ccc(F)c(F)c3)n2)cc1` .
A) 13.4 µM

---

System: MCF7 breast
assay explanation: NCI tumour cell line growth inhibition, 48 h; in the data active = GI50 below about 0.43 µM; inactive = the rest
The reply should name one outcome from YES = active, NO = inactive

Example entries begin here.
molecule	assigned category
COC(=O)Nc1nc2ccc(C(=O)c3ccc(N(C)C4COC4)cc3)cc2[nH]1	YES
CCn1cc(-c2ccnc3[nH]ccc23)c(-c2cccc(NC(=O)Nc3ccc(OCc4ccccc4)cc3)c2)n1	NO
CS(=O)(=O)Nc1cccc(-c2cc(-c3ccccc3Cl)c(C#N)c(N)n2)c1	NO
O=C(/C=C/C=C/c1c(C2CC2)nc2ccccc2c1-c1ccc(F)cc1)c1cccs1	NO

Q) Hey, what did the test say about `Cc1nccc2c3ccc(OCc4cn(-c5ccc(Cl)cc5)nn4)cc3n(CCCc3ccccc3)c12` ?
A) NO

Q) Next molecule: `COC(=O)c1c(O)c([N+](=O)[O-])cc2c1c1c(n2Cc2ccccc2)C(=O)c2ccccc2C1=O`
A) NO

Q) Another molecule: CCN(CC)CCCC(C)Nc1nc(C)cc(Nc2ccc3nc(C)cc(N)c3c2)n1 (centres undefined)
A) NO

Q) Another molecule to check: `COc1ccc(-c2nc(C(=O)c3ccccc3)n(CC(=O)c3ccccc3)c2-c2ccc(OC)cc2)cc1`
A) NO

Q) Another molecule: `CN1C(=O)[C@@H](NC(=O)[C@H](CCC(F)(F)F)[C@H](CCC(F)(F)F)C(N)=O)N=C(c2ccccc2)c2ccccc21`
A) NO

---

System: NCI-H226 lung
assay explanation: NCI tumour cell line growth inhibition, 48 h
value type: TGI

compound	observed measurement
N=c1c2c(=S)n(-c3ccccc3)c(=S)n(-c3ccccc3)c2nc(SCCCN2CCN(c3cccc(Cl)c3)CC2)n1-c1ccccc1	> 100 µM
CC1(C)CC(=O)C2=C(C1)NC1=C(C(=O)CC(C)(C)C1)C2c1ccc([N+](=O)[O-])cc1	> 100 µM
COc1cc(O)c2c(c1)C(=O)C=C(Cl)C2=O	> 100 µM

Q) TGI of C=C1C(=O)C[C@@]23CCC[C@@]12CC(OCOC)C3 (stereo not given in full) on NCI-H226 lung?
A) 4.66 µM

Q) Same question for c1ccc(C2=NOC3(c4ccccc4)SC4CCCCC4CN23)cc1 (stereo not given) please.
A) > 100 µM

Q) // repeat for COc1cc(C=C2C(C)=NN(c3cccc(Cl)c3)C23C(Cl)C(=O)N3c2nc3ccccc3s2)ccc1O (stereo not given) and report
A) 63.6 µM

---

Tested on: HCT-15 colon
assay explanation: NCI tumour cell line growth inhibition, 48 h
value type: TGI (µM)
Enter your answer as a number in µM; do not include the unit.

Use these answered entries as a reference point.
smiles notation	TGI (µM)
CCN(CC)CCCn1c(=O)c2ccccc2n2c3c(=O)n(C)c(=O)n(C)c3nc12	25.4
CCOC(=O)c1sc(N/N=C2\NC(=O)/C(=C/c3ccc([N+](=O)[O-])cc3)S2)nc1C	48.5
CN(C)CCNC(=O)c1cccc2c(Nc3ccc(S(N)(=O)=O)cc3)c3ccccc3nc12	7.07
CN(C)C/C=C/C(=O)Nc1cc2c(Nc3ccc(F)c(Cl)c3F)ncnc2cc1OCCOC(F)F	2.96

Kindly review the next compound as well.
Q) Missing value: TGI, HCT-15 colon, entry `O=C(/C=C/C=C/c1c(C2CC2)nc2ccccc2c1-c1ccc(F)cc1)c1cccs1` . Fill in?
A) 3.92

---

TGI values by entry
System: SF-295 CNS
assay explanation: NCI tumour cell line growth inhibition, 48 h

molecule	observed measurement
CCN1C[C@]2(C)CC[C@H](OC)C34C1C([C@H](OC(C)=O)[C@@H]32)[C@@]1(OC)C[C@H](OC)[C@H]2C[C@@H]4[C@@H]1[C@H]2O	> 100 µM
O=C1C=CC2=[N+]([O-])C(c3ccccc3)(c3ccccc3)C(=Nc3ccccc3)C2=C1	27.7 µM
Cc1[nH]c2ccccc2c1-c1cc(-c2cc(-c3c(C)[nH]c4ccccc34)nc(N)n2)nc(N)n1	> 100 µM

Kindly consider the entry below.
Q) For the molecule shown here, COc1cc2c(cc1OC)C(OC)N(C)c1c-2ccc2cc3c(cc12)OCO3 (centres undefined) , give the reported TGI.
A) > 75 µM

---

Listed here are molecules together with their documented TGI.
Tested on: NCI/ADR-RES ovarian
assay explanation: NCI tumour cell line growth inhibition, 48 h
Where a SMILES comes first, the peptide text is derived from it. [ ]: non-standard residue; d: D form. The star is where a group is joined. Tyr(3-Br) = N[C@@H](Cc1ccc(O)c(Br)c1)C(=O)O; Boc = CC(C)(C)OC(=O)*

molecule	tested on	observed measurement
COc1ccc(/C=C2\CCC(C)/C(=C\c3ccc(OC)c(OC)c3)C2=O)cc1OC (configuration not stated)	NCI/ADR-RES ovarian	32.5 µM
Cc1nc(CN2CCCCC2)c(O)c(=O)[nH]1	NCI/ADR-RES ovarian	> 100 µM
O=Cc1ccc(-c2ccc(-c3nc4ccccc4o3)cc2)s1	NCI/ADR-RES ovarian	79.4 µM
COC(=O)[C@H](Cc1ccc(O)c(Br)c1)NC(=O)[C@H](Cc1ccc(O)cc1)NC(=O)OC(C)(C)C (Boc-Tyr-[Tyr(3-Br)]-OMe)	NCI/ADR-RES ovarian	> 100 µM
CC(=O)Oc1cc2c(c3ncccc13)OC(C)(C)C2	NCI/ADR-RES ovarian	23.9 µM
CC(=O)O[C@@H]1[C@@H](O)C2=C3[C@]4(C)[C@@H]1C(C)(C)C(=O)C[C@@H]4[C@]3(O)[C@H](OC(C)=O)[C@@]1(C[C@@H]1C)C2=O	NCI/ADR-RES ovarian	62.5 µM

Q) Query the reported TGI for NCI/ADR-RES ovarian; item: C=C1C(=O)C[C@@]23CCC[C@@]12CC(OCOC)C3 (some centres not stated)
A) 9.5 µM

Q) Also need `CCN(CC)CCCNc1ncc(C)c2[nH]c3ccncc3c12` , thanks.
A) > 100 µM
